For each entry below, report its yeast fitness value.
B1: tRNA (parent)
chain: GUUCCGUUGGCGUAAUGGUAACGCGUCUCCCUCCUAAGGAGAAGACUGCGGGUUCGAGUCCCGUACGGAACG

- Variants of: B1
- test: yeast fitness relative to wild type (ratio to wild type); higher = fitter; tRNA-Arg(CCU), competitive growth, 37 C, YPD
Fewer inactive variants are shown than the library holds.

Consider `GUUCCGUUGGCGUAAUGGUAUCGCGUCUCCCUCCUAAGGAGAAGACUGCGGGUUCGAGACCCGUACGGAACG` . Its measured yeast fitness is 0.587

Could you report yeast fitness for every entry in the following list?
1. GUUCCGUUGGCGUAAUGGUAACGCGUCUCCCUCCUAAGGAGUAGACUGCGGGUUCGAGUCUUGUACGGAACG
2. GUUCCGUUGGCGUAAUGGUAGCGCGUCUCACUCCUAAGGAGAAGACUGCGGGUUAGAGUCCCGUACGGAACG
3. GUUCCGUUGGCGUUAUGGUGACGAGUCUCCUUCCUAUGGAGAAGACUACGGGUUCGAGUCCCGUACGGCACG
4. GUUCCGUUGGCGUAAUGGUAACGCAUCUCCCACCUAAGGAGAAGACUGCGGGAUCGAGUCCCGUACGGACCG
5. GUGCCGUCGGCGUAGUGGUAACGGGUCUCCCUCCUAAGGAGAAGACUGCAGGUUUGAGUCCCGUACGGAACG
6. GUUCCGUUGGCGUAAUGGUAACGCGUCUCCCUCCUAAGGAGAUGACUGCGGGUUCGAGUCCCGUACGGAUCG
7. GUUCCAUUCGCGUAAUGGUAACGCGUCUCCUUCCUAAGGAGAAGACUGCGGGUUCGAGUCCCGUACGGAACG

[0.612, "≤ 0.5", "≤ 0.5", "≤ 0.5", "≤ 0.5", 1.06, "≤ 0.5"]

Could you report yeast fitness for every entry in the following list?
1. GUCCCGUUGCCGUAAUGGUAACGCGUCUCCCUUCUAAGGCGAAGACUGCGGGUUCGAGUCCCGUACGGAACG
2. GUUCCGUUGGCGUAAUGGUUACGCGUCUCCCUCCUAACGAGAAGAAUGCGGGUUCGAGUCCCGUACGGAACG
3. GUUCCGUUGGCGUAAUGGUAACGCGUCUCCCGUCUCAGGAGAAGACUGCGGGUUCUAGUCCCGUAAGGAACG
4. GUUCCGAUGGCGUAAUGGUAACGCGUUUCCCUCCUAAGGAGAAGACUGCGGGUUCGAGUCCCGUACGGAACG
5. GUCCCAUUGGCGUAAUGGUAACCCGUCUCCCUCCUAAGGAGAAGACUGGGGGGUCGGGUCCCGUACGGAACG
6. GUUCCGUUGGCGUAAUGCUAACGCGUCUCGCUCCUAAGGAGAAGAUUACGGGUGCGAGUCCCGUACGGAACG

≤ 0.5
≤ 0.5
≤ 0.5
0.666
≤ 0.5
≤ 0.5

Could you report yeast fitness for every entry in the following list?
1. GUUCCGUUGGCGUAAUGGUAACGCGUCUAUCUCCUAAGGAGAAGACUGCGGGUUCGAGUCCCGUACGGAACG
2. GUUCUGUUGGCGUAAUGGUAACGCGUCUCGCUCCUAAGGAGAAGACUGCGGGUUCGAGUCCCGUACGGCGCG

1. 0.689
2. ≤ 0.5

Could you report yeast fitness for every entry in the following list?
1. GUUCCGUUGGCGUAAUGGUAACGCGUCUCCCUCCUAAGGAGGAGACUGCGGGUUUGAGUCCCGUCCGGAACG
2. GUUCCGUUGGCGUAAUGGUAACGUGUCUCCCUCCUAAGGAGAAGACUGCGGGUUCGAGUACCGUAGGGAACG
3. GUUCCGUUGGCGUAAUGGUAACGCGUCCCCCUCCUAAGGGGAAGCCUGCGGGUUCGAGUCCCGUACGGAUCG
4. GUUCCGUUGGCGUAAUGGUAACGCGUCUCCCUCCUAAGGAGACGUCUGGGGGUUCGAGUCUCGUACGGAACG
5. GUUCCGUUGGCGUAAUGGUAACGCGUCUCCCUCCUAAGGCGAAGACUGCGGCUUCGAGUCCCGUAUAGAACG
6. GUUCGCUUGGCGUAAUGGUAACGCGUCUCCCUCUUAACGAGAAGACUGCGGGUUCGAGUCCCGUACGGAACG

1: 0.535; 2: 0.606; 3: 0.911; 4: ≤ 0.5; 5: ≤ 0.5; 6: 0.749

Could you report yeast fitness for every entry in the following list?
1. GUUCCGUUGGCGUAAUGGUAACGCGUCUCCCUCGUAAGGAGAAGACUGCGGGUUCGAAUCCCCUACGGAACG
2. GUUCCGUUGGUGUAAUGGUAACGCGUCUGCCUUCUAAGGAGAAGACUGCGGGUUCGAGUCCCGUACGGAACG
3. GUUCCGUUGGCGUAAUGGUAACGCGUCUCCCUCCUAAGGAGAAGCCUGCGGGUUCGAGUCCCGUACGGUACG
4. GUUCCGUUGGCGCAAUGGUAGCGCGUCUCCGUCCUAAGGAGAAGACCGCGGGUUCGAGUCCCGUACGGAACG
5. GUUCCGUUGGCGGAAUGGUAACGCGUCUCCCUCCGAAGGGGAAGACUGCGGGUUCGAGUCCCGUACGGAACG
6. GUUCCGUUGGCGUAAUGGUAACGCGCCUCCCUGCUAAGGAGUAGACUGCGGGUUCGAGUCCCGUACGGAACG
7. GUUCCGUUGGCGUAAUGUUAACGCGUCUCCUUCCUAAGGAGAAGACUGCGGGUUCGAGUCCCAUACGGAACG

1: ≤ 0.5; 2: ≤ 0.5; 3: 0.959; 4: 0.555; 5: 0.676; 6: ≤ 0.5; 7: 0.527

Could you report yeast fitness for every entry in the following list?
1. GUUCCGUUGGCGUAAUGGUAACGCGUCUCCCUCCUAAGGAGAAGACUGCGGAUUCGAGUCCCGUACGGCACG
2. GGUCCGUUGGGGUAAUGGUAACGCGUCUCCCUCCUCAGGAGAAGACUGCGGGUUCGAGUCGCAUACGGAACG
3. GUUCCGUUGGGGUAACGGUAUCGCGUCUCGCUCCUAAGGAGAAGACUGCCGGUUCGAGUCCCGUACGGAACG

1: 0.738; 2: ≤ 0.5; 3: ≤ 0.5

Could you report yeast fitness for every entry in the following list?
1. GUCCCGUUGGCGUAAUGGUAACGCGUCUCUCUCCUAGGGAGAAGACUGCGGGUUCGAGUCACGUACGGAACG
2. GUUCCGUUGGCGUAACGGUAACGCGCCUCCCUCCUAAGGAGAAGACUGCGGGUUCGAGUCCCGUACGGAACG
3. GUUCCGUUAGCGUAAUGGUAACGCGUCUCCCUCCUAAGGAGAAGACUGCGGGUUCGAGUCCCGUACUGAACG

≤ 0.5
0.884
0.863

Could you report yeast fitness for every entry in the following list?
1. GUUCCGUUGGCGUAAUGGUAACGCGUCUCCCUACUAAGGAGAAGACUGCGGGUUGGAGUCCCGUACGGAACG
2. GUUCCGUUGGCGUAAUGGUAACGGGUCUCACUCCUAAGGAGAACACCGCGGGUUCGAGACCCGUACGGCCCG
3. GUUCCGUUGGCGUAAUGGUAACGCGUCUCCCUCCUGAGGAGAAGACUGCGGGUUCGAAUUCCGUACGGAACG
4. GUUCCAUUGGCGUAAUGGUAAGGCGUCUCCCUCCUAAGGAGAAGACUGCGGGUUCGAGUCCCGUACGGCACG
5. GUUCCGUUGGCGUAAUGGUAACGCGUCUCCCUCCUAAGGAGAAGCCUGGGGGUUCGACUCCCGUACGGAACG
6. GUUCCGUUGGCGUUCUGGUAACGCGUCUCCCUCCUAAGGGGAAGACUGCGGGUUCCAGUCCCGUACCGAACG
7. GUUCGGUUGGCGUAAUGGUAACGCGUCUCCCUCCUAAGGAGAGGACUGCGGGUUCGAGUCCCGUACUGAACG
8. GUUCCGUUGGCGUAAUGGUAACCCGUCUUCCUCCUCAGGAGAAGACUGGGGGUUCGAGUCCCGUACGGAUCG

[0.564, 0.884, "≤ 0.5", 0.591, "≤ 0.5", "≤ 0.5", 0.543, 0.53]
